- Experimental System: NK3 receptor (Homo sapiens)
- Sequence (P29371 1-465): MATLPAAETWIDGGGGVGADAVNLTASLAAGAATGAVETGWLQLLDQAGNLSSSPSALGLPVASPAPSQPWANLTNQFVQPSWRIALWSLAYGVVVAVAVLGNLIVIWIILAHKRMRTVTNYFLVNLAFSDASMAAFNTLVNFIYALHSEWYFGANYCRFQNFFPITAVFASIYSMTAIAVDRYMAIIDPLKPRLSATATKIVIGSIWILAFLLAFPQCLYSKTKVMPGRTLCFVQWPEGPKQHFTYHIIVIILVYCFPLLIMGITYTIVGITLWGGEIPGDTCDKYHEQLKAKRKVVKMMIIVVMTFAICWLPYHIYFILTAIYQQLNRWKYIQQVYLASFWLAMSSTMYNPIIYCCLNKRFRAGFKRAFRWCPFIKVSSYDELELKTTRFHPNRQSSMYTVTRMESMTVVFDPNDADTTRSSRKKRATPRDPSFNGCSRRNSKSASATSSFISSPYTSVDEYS
- Protocol Notes: NK3 binding affinity, scintillation proximity assay (SPA), 125I [MePhe7]-NKB
- Cond: membranes from CHO cell lines expressing NK3 receptors; radioligand 125I [MePhe7]-NKB
Attribute Measured: Ki (nM)
Report as a plain number; the unit nM is understood.

Could you tell me which Ki is on file for O=C(N[C@H](c1cccc(F)c1)C1CC1)c1c(CN2CCCC2=O)c(-c2ccccc2)nc2ccccc12 [Example 1] ?
3.16

Ref: patent US20080103173A1
